Attribute: pIC50
# study-system: hURAT1 (Homo sapiens)
# Sequence (Q96S37 whole entry): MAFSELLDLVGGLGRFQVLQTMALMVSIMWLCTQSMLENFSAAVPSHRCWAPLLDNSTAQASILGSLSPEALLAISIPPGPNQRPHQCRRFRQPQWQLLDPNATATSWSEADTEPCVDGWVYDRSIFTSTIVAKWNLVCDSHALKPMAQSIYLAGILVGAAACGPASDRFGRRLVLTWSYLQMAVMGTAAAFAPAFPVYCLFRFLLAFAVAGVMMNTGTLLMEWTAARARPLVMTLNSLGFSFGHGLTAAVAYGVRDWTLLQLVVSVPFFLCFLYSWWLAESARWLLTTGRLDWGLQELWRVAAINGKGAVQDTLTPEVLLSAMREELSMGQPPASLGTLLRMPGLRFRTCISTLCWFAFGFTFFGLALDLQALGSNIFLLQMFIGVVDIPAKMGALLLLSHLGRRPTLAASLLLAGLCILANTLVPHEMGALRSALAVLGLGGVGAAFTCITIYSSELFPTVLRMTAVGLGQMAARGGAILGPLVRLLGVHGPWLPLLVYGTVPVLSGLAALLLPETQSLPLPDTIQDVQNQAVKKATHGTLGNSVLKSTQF
# procedure-summary: [14C]urate uptake inhibition in Xenopus oocytes expressing hURAT1
# measurement-conditions: 14C-uric acid uptake, 60 min
pIC50: −log10 of the molar value.
measurement-type: pIC50

> print(dat)
                                   molecule  comparison.symbol  reported
1  CCc1oc2cc(O)ccc2c1C(=O)c1ccc(OC)cc1 [Compound 31]                  <      4.30
2  CCc1oc2cc(O)ccc2c1C(=O)c1cc(Br)c(O)c(Br)c1 [Compound 8]                  =      6.86
3  CCc1oc2ccccc2c1C(=O)c1ccc(O)cc1 [Compound 13, reference compound]                  =      5.55
4  CCc1oc2cc(OC)ccc2c1C(=O)c1ccc(O)cc1 [Compound 30]                  =      5.41
5  CCc1cc2cc(O)cc(C(=O)c3cc(Br)c(O)c(Br)c3)c2o1 [Compound 44]                  =      6.54
6  CCc1cc2cc(OC)cc(C(=O)c3cc(Br)c(O)c(Br)c3)c2o1 [Compound 43]                  =      5.84
7  CCc1oc2cc(O)ccc2c1C(=O)c1ccc(O)cc1 [Compound 32]                  =      5.96
